Biological target: T1, recombinant human CTLA4-Fc (human, UniProt P16410 36-162)
T1 construct: also called human CTLA4 fused with human FC fragment; CTLA4-Fc (Sino Biological, 11159-H03H)
T1 sequence (looked up): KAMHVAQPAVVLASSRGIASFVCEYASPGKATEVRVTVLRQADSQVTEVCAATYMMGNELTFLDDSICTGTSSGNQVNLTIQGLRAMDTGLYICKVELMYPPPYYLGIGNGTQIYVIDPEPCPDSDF
Assay: ELISA, coated human CTLA4-Fc (as in Example 8)
reported.endpoint: pEC50
// field semantics: pEC50 = negative decimal log of concentration (mol/L)

Q: Can you share its pEC50? I mean this binder: TY22404 (antibody, IgG1, V domains shown, IgG1; peptide fused to the N-terminus of the light chain of TY21580) VH: EVQLVESGGGLVQPGGSLRLSCAASGYSISSGYHWSWIRQAPGKGLEWLARIDWDDDKYYSTSLKSRLTISRDNSKNTLYLQLNSLRAEDTAVYYCARSYVYFDYWGQGTLVTVSS VL: EVGSYPNPSSDCVPYYYACAYSGRSAGGGGSPLGLAGSGGSDIQLTQSPSSLSASVGDRVTITCRASQSVRGRFLAWYQQKPGKAPKLLIYDASNRATGIPSRFSGSGSGTDFTLTISSLQPEDFATYYCQQSSSWPPTFGQGTKVEIKR
Result: 6.93

Reference source for all entries: patent US20190241662A1
